Target: α1G T-type Ca2+ channels (Homo sapiens, UniProt O43497)
Construct: expressed in transfected cells; host or cells: HEK293 cells stably expressing α1G and Kir2.1
Sequence (O43497 whole entry): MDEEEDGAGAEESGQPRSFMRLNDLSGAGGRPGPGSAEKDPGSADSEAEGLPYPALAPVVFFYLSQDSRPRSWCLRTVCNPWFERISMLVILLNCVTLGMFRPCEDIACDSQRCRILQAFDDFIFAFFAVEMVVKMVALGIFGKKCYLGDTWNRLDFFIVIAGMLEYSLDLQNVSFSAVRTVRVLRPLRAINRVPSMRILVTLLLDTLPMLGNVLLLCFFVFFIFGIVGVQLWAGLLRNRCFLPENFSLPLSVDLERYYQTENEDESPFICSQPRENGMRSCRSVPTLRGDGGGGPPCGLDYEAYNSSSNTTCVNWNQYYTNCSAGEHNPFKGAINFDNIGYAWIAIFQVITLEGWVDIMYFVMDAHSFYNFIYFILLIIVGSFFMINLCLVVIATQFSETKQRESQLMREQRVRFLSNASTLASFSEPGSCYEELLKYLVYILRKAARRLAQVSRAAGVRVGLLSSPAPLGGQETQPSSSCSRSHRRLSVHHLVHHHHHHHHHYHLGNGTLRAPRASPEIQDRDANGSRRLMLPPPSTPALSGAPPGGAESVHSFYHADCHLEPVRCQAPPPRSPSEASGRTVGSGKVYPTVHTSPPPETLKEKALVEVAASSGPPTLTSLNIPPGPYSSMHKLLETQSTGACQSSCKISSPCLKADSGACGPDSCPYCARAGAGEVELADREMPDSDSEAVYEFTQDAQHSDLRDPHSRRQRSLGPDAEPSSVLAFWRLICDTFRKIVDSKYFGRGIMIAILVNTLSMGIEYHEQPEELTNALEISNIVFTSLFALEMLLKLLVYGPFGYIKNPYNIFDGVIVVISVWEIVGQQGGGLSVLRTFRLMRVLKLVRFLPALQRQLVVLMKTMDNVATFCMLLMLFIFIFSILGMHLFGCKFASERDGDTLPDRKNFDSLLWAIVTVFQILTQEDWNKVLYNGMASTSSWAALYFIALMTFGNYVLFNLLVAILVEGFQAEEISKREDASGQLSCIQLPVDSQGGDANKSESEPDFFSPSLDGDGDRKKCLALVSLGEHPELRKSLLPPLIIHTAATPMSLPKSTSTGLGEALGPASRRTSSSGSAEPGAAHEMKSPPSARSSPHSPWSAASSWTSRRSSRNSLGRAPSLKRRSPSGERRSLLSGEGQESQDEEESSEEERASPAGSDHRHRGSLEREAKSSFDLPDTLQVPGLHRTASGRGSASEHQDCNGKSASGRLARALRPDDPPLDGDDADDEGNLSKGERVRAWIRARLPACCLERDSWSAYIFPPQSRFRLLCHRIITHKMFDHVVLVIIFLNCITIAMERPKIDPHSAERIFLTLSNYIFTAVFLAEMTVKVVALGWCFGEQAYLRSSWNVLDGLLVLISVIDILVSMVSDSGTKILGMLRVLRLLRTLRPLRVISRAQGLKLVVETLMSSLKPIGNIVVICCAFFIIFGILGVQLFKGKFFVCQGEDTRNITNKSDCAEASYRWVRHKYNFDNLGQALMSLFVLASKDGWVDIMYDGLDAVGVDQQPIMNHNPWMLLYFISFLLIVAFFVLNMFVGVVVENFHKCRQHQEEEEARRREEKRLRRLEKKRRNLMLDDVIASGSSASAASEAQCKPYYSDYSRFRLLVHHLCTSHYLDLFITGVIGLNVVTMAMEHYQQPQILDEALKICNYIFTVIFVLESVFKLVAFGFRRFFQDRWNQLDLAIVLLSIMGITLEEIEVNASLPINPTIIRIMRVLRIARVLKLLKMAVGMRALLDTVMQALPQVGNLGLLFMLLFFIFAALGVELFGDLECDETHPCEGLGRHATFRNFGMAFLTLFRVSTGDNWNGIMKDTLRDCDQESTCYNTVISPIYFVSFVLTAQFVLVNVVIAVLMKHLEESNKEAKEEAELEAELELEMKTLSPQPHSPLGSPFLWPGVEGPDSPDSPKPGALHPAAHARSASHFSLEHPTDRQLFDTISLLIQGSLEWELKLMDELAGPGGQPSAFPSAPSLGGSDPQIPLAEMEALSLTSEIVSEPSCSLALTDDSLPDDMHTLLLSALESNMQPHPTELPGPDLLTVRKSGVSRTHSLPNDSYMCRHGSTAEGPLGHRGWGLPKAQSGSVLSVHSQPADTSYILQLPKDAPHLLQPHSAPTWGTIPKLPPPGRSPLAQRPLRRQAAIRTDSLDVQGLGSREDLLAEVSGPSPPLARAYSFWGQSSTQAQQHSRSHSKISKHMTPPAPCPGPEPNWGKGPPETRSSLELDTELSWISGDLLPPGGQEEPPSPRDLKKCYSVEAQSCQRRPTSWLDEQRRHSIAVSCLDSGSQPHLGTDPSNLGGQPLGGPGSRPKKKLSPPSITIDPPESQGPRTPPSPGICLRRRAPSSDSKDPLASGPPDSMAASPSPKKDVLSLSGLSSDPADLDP
Assay: Screening of activity against T-type calcium channel with FDSS6000 (fluorescence, KCl-induced [Ca2+]i increase)
Type: cell-based
Details: 100 μM; HEK293 cells expressing α1G and Kir2.1; read-out: Inhibitory effect (%) of T-type calcium channel, Inhibition (%)
Observable: inhibition at 100 µM (%)

Here are 3 compounds together with their reported answers.
compound=Cc1ccccc1N1C(=O)c2ccc(C(=O)NCCN3CCCC3)cc2C1=O measurement_units=% recorded_result=33.6
compound=COc1ccc(CN2C(=O)c3ccc(C(=O)NCCN4CCOCC4)cc3C2=O)cc1 measurement_units=% recorded_result=51.7
compound=O=C(NCCN1CCCCC1)c1ccc2c(c1)C(=O)N(c1ccccc1Cl)C2=O measurement_units=% recorded_result=38.2

(1) O=C(NCCCN1CCCC1)c1ccc2c(c1)C(=O)N(Cc1ccccc1)C2=O
(2) O=C(NCCN1CCCCC1)c1ccc2c(c1)C(=O)N(Cc1ccccc1F)C2=O
**Query** Higher inhibition at 100 µM: 1 or 2 ? Give the chosen item's label as your response.
**Result** 2

###

Biological target: α1G T-type Ca2+ channels (Homo sapiens)
Construct: expressed in transfected cells; host or cells: HEK293 cells stably expressing α1G and Kir2.1
Assay: Screening of activity against T-type calcium channel with FDSS6000 (fluorescence, KCl-induced [Ca2+]i increase)
Type: cell-based
Conditions: 100 μM; HEK293 cells expressing α1G and Kir2.1; read-out: Inhibitory effect (%) of T-type calcium channel, Inhibition (%)
Observable: inhibition at 100 µM (%)

Examples with their reported inhibition at 100 µM follow.
compound="O=C(NCCN1CCCC1)c1ccc2c(c1)C(=O)N(c1ccc(F)cc1)C2=O [Compound 21]" recorded_result=19.4
compound="Cc1ccccc1CN1C(=O)c2ccc(C(=O)NCCCN3CCOCC3)cc2C1=O [Compound 98]" recorded_result=55.2
compound="COc1cccc(CN2C(=O)c3ccc(C(=O)NCCN4CCCC4)cc3C2=O)c1 [Compound 119]" recorded_result=56.3

(P) COc1ccc(CN2C(=O)c3ccc(C(=O)NCCN4CCCC4)cc3C2=O)cc1 [Compound 125]
(Q) O=C(NCCCN1CCOCC1)c1ccc2c(c1)C(=O)N(Cc1ccccc1)C2=O [Compound 54]
(R) O=C(NCCCN1CCCC1)c1ccc2c(c1)C(=O)N(c1ccc(F)cc1)C2=O [Compound 22]
**Query** Endpoint returns the given compounds ordered by ascending inhibition at 100 µM. Labels, requested order.
**Result** R, Q, P

(a) Cc1ccccc1CN1C(=O)c2ccc(C(=O)NCCCN3CCCCC3C)cc2C1=O (stereo not drawn) [Compound 94]
(b) O=C(NCCCN1CCCC1)c1ccc2c(c1)C(=O)N(c1cccc(F)c1)C2=O [Compound 16]
**Query** Of a and b , which carries the smaller reported inhibition at 100 µM figure? Select an item and report its label.
**Result** b

###

Biological target: α1G T-type Ca2+ currents (Homo sapiens)
Sequence (O43497 whole entry): as above
Test: Electrophysiological whole cell patch clamp method in HEK293 cell
Conditions: peak current, step to −30 mV, read-out: Activity (IC50) against T-type calcium channel
pIC50: −log10 of the molar value.
Observable: pIC50

Recorded results for 4 molecules are shown here.
molecule="CC1CCCCN1CCCNC(=O)c1ccc2c(c1)C(=O)N(Cc1ccc(F)cc1)C2=O (stereo not drawn) [Compound 69]" experimental_system="α1G T-type Ca2+ currents (Homo sapiens)" recorded_result=5.69
molecule="Cc1ccccc1CN1C(=O)c2ccc(C(=O)NCCN3CCCCC3)cc2C1=O [Compound 93]" experimental_system="α1G T-type Ca2+ currents (Homo sapiens)" recorded_result=5.08
molecule="Cc1cccc(CN2C(=O)c3ccc(C(=O)NCCCN4CCCCC4C)cc3C2=O)c1 (stereo not drawn) [Compound 100]" experimental_system="α1G T-type Ca2+ currents (Homo sapiens)" recorded_result=5.74
molecule="Cc1ccccc1CN1C(=O)c2ccc(C(=O)NCCCN3CCCCC3C)cc2C1=O (stereo not drawn) [Compound 94]" experimental_system="α1G T-type Ca2+ currents (Homo sapiens)" recorded_result=5.68

(A) CC1CCCCN1CCCNC(=O)c1ccc2c(c1)C(=O)N(Cc1cccc(Cl)c1)C2=O (stereo not drawn) [Compound 82]
(B) CC1CCCCN1CCCNC(=O)c1ccc2c(c1)C(=O)N(Cc1ccc(Cl)cc1)C2=O (stereo not drawn) [Compound 88]
**Query** Between A and B , which one has the lower reported pIC50 value? Pick one; state its label.
**Result** A
(A: 5.74, B: 6.03)
